Target: HLA-B*45:01
Assay: IEDB peptide-MHC binding, purified MHC/competitive/radioactivity; filed as Kd, often an IC50 or EC50 that approximates it; bounds were set here for any values at or beyond the usual limits of such assays
Settings: source organism: Lymphocytic choriomeningitis virus (strain Armstrong)
READOUT KIND: Kd

Lookup: Which Kd is reported with HLA-B*45:01 for this entry: IEVALRTLLL ?
Found: ≥ 70 µM

###

Biological target: HLA-B*46:01
Assay: IEDB peptide-MHC binding, purified MHC/direct/fluorescence; filed as Kd, often an IC50 or EC50 that approximates it; bounds were set here for any values at or beyond the usual limits of such assays
Conditions: source organism: Rickettsia bellii RML369-C
READOUT KIND: Kd

Lookup: Return reported Kd; argument: NPLEIYQEI
Found: ≥ 20 µM

###

Entries and their measured Kd follow.
Molecular target: HLA-B*45:01
Assay: IEDB peptide-MHC binding, purified MHC/competitive/radioactivity; filed as Kd, often an IC50 or EC50 that approximates it; bounds were set here for any values at or beyond the usual limits of such assays
Conditions: source organism: Mammarenavirus brazilense

sequence_content=REIGSLLHGL readout_kind=Kd endpoint_result="2.75 µM"

Lookup: Given YDQLLDSSL , state its recorded Kd.
Found: ≥ 77.7 µM

Lookup: If you can, please state the reported Kd value of HENKNATWCL .
Found: 5.06 µM

###

Biological target: HLA-B*46:01
Assay: IEDB peptide-MHC binding, purified MHC/direct/fluorescence; filed as Kd, often an IC50 or EC50 that approximates it; bounds were set here for any values at or beyond the usual limits of such assays
Details: source organism: Influenza A virus (A/Viet Nam/HN/2004(H5N1))
READOUT KIND: Kd

Lookup: Test system HLA-B*46:01; read-out Kd; what value for ERNEQGQTL ?
Found: ≥ 20 µM

###

Below, each of the sequences is paired with its reported Kd value.
Target: HLA-B*15:03
Test: IEDB peptide-MHC binding, purified MHC/competitive/radioactivity; filed as Kd, often an IC50 or EC50 that approximates it; bounds were set here for any values at or beyond the usual limits of such assays
Conditions: source organism: Vaccinia virus WR
Number only, in nM; omit the unit.

// below: answered sequences
sequence_content=LFLDIECHF endpoint_result=47.3
sequence_content=LMTMNIVNF endpoint_result=16.5
sequence_content=HLIMFEQYF endpoint_result=45.5
sequence_content=LAVLFINSI endpoint_result=191
sequence_content=LQKLAQHSI endpoint_result=243
sequence_content=KTINALVYF endpoint_result=22.7

Lookup: Field: Kd (HLA-B*15:03). Entry: CAVNTPVSM
Found: 43

Lookup: Kd of CMSNSRLSF on HLA-B*15:03?
Found: 1.03

Lookup: Param readout= Kd; system= HLA-B*15:03; entry= ISASDMQKF ; returns value.
Found: 812

Lookup: What reported Kd corresponds to SQIITLTAF on HLA-B*15:03?
Found: 0.791

Lookup: Value wanted: Kd (HLA-B*15:03) of entry ILHSDYQLF
Found: 2.43

###

Biological target: HLA-B*08:01
Experiment: IEDB peptide-MHC binding, purified MHC/direct/fluorescence; filed as Kd, often an IC50 or EC50 that approximates it; bounds were set here for any values at or beyond the usual limits of such assays
Conditions: source organism: Influenza A virus (A/Viet Nam/HN/2004(H5N1))
READOUT KIND: Kd

Lookup: Quick check: Kd of ERNEQGQTL ?
Found: ≥ 20 µM
